Value source: patent US20090104205A1

Answer each item with its documented Kd.
assayed.system: T1, C-terminal truncated RSV F protein (secreted, from recombinant baculovirus) (respiratory syncytial virus, UniProt P03420 26-524)
T1 construct: also called immobilized F protein
T1 sequence (P03420 26-524): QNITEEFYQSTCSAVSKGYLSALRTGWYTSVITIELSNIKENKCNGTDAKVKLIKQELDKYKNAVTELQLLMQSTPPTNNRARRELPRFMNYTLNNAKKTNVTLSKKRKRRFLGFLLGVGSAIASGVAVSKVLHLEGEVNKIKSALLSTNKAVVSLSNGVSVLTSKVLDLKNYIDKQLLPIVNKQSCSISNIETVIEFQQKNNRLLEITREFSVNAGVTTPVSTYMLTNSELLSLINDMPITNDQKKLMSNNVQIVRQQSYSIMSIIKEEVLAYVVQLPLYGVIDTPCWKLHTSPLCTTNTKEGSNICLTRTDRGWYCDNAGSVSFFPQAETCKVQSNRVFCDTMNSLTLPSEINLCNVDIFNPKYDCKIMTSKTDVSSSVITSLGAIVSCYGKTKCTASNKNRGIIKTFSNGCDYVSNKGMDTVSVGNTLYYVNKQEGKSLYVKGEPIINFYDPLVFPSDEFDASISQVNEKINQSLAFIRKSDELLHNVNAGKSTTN
method.notes: SPR (BIAcore), F protein amine-coupled, Kd = kd/ka
Entry rule: numbers only, all in nM.

**Query** What does the data say about its Kd? Entry: murine monoclonal antibody MAb 1129 (antibody, V domains shown, also called M1129) VH: QVELQESGPGILQPSQTLSLTCSFSGFSLSTSGMSVGWIRQPSGEGLEWLADIWWDDKKDYNPSLKSRKTISKDTSSNQVFLKITGVDTADTATYYCARSMITNWYFDVWGAGTTVTVSS VL: DIQLTQSPAIMSASPGEKVTMTCSASSSVGYMHWYQQKSSTSPKLWIYDTSKLASGVPGRFSGSGSGNSYSLTISSIQAEDVATYYCFQGSGYPFTFGGGTKLEIK
**Result** 11.4

**Query** What does the data say about its Kd? Entry: murine monoclonal antibody MAb 1308F (antibody, V domains shown, also called M1308F; Mu1308F) VH: EVQKQQSGAELVRPGALVKLSCKASGFNIKDYYIYWVKQRPEQGLEWIGWIDPENGNTVFDPLFQGKASITSDTSSNTAYLQLSSLTSEDTAVYYCAYYGTSSFDFWGQGTTLTVSS VL: DIKMTQSPSSMYVSLGERVTITCKASQDINRYLNWFQQKPGKSPKTLIHRANRLVDGVPSRFSGSGSGQEYSLTISSLEFEDMGIYYCLQFHEFPYTFGGGTKLEIL
**Result** 1.1

**Query** What does the data say about its Kd? Entry: humanized 1308F (CDR-grafted anti-RSV F antibody, human IgG1/kappa) (antibody, V domains shown, also called H1308F; Hu1308F) VH: QVQLVQSGAEVKKPGASVKVSCKASGFNIKDYYIYWVRQAPGQGLEWIGWIDPENGNTVFDPKFNGRVTMTRDTSTSTVYMELSSLRSEDTAVYYCAYYGTSSFDFWGQGTTLTVSS VL: DIQMTQSPSTLSASVGDRVTITCKASQDINRYLNWYQQKPGKAPKLLIYRANRLVDGVPSRFSGSGSGTEFTLTISSLQPDDFATYYCLQFHEFPYTFGGGTKLEIL
**Result** 2.5

**Query** What does the data say about its Kd? Entry: humanized 1129 (CDR-grafted anti-RSV F antibody, human IgG1/kappa) (antibody, V domains shown, also called H1129; Hu1129) VH: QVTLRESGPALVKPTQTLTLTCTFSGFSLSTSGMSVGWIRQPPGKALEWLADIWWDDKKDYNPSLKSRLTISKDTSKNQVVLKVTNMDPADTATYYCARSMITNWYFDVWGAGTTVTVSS VL: DIQMTQSPSTLSASVGDRVTITCKCQLSVGYMHWYQQKPGKAPKLWIYDTSKLASGVPSRFSGSGSGTEFTLTISSLQPDDFATYYCFQGSGYPFTFGGGTKLEIK
**Result** 1.4
